Substrate: Cc1cc(=O)oc2cc(O[C@@H]3OC[C@@H](O)[C@H](O)[C@H]3O)ccc12
Test: galactosyltransferase assay, HPLC-UV
Format: biochemical, Homo sapiens
Conditions: apparent, fixed 1 mM UDP-Gal, 10 mM MnCl2, 100 mM sodium cacodylate pH 7.0, 37 °C
Property Label: Km

Identify measured Km associated with hβ4GalT7 (GST-β4GalT7) (Homo sapiens; H195R) (protein, truncated soluble form lacking the first 60 N-terminal amino acids (transmembrane domain and part of stem), GST fusion (tag kept), pET-41a(+), E. coli BL21(DE3), glutathione-Sepharose purified) VRGQGQETSGPPRACPPEPPPEHWEEDASWGPHRLAVLVPFRERFEELLVFVPHMRRFLSRKKIRHHIYVLNQVDHFRFNRAALINVGFLESSNSTDYIAMHDVDLLPLNEELDYGFPEAGPFHVASPELHPLYRYKTYVGGILLLSKQHYRLCNGMSNRFWGWGREDDEFYRRIKGAGLQLFRPSGITTGYKTFRHLHDPAWRKRDQKRIAAQKQEQFKVDREGGLNTVKYHVASRTALSVGGAPCTVLNIMLDCDKTATPWCTFS 350 ± 30 µM

Specify measured Km for hβ4GalT7 (GST-β4GalT7) (Homo sapiens; R226K) (protein, truncated soluble form lacking the first 60 N-terminal amino acids (transmembrane domain and part of stem), GST fusion (tag kept), pET-41a(+), E. coli BL21(DE3), glutathione-Sepharose purified) VRGQGQETSGPPRACPPEPPPEHWEEDASWGPHRLAVLVPFRERFEELLVFVPHMRRFLSRKKIRHHIYVLNQVDHFRFNRAALINVGFLESSNSTDYIAMHDVDLLPLNEELDYGFPEAGPFHVASPELHPLYHYKTYVGGILLLSKQHYRLCNGMSNRFWGWGKEDDEFYRRIKGAGLQLFRPSGITTGYKTFRHLHDPAWRKRDQKRIAAQKQEQFKVDREGGLNTVKYHVASRTALSVGGAPCTVLNIMLDCDKTATPWCTFS . 460 ± 10 µM

Data provenance: paper PMC4367269
